- measurementNotes: in vitro
- conditions: rat, liver microsomes
observationType: microsomal CLint at 0.25 h, 1 µM (µL/min/mg)
Just the number in µL/min/mg, nothing appended.

# microsomal CLint at 0.25 h, 1 µM of Cc1nc(C)n(CC(=O)N2CCN(c3sc(C(F)(F)F)nc3-c3nc4ccc(-c5noc(C)n5)cc4[nH]3)C[C@H]2C)n1 = 47

###

- measurementNotes: Solubility of the compound in FeSSIF
- conditions: simulated gi fluid
Label Criterion met when solubility is at or above 600 µg/mL; otherwise label Criterion not met.

Query: In plain terms: is recorded solubility at least 600 µg/mL for C[C@@H]1CN(c2sc(C(F)(F)F)nc2-c2nc3ccccc3[nH]2)CCN1C(=O)Cn1cnc2c1CCN(C)C2 ?
Reply: Criterion met

Query: In plain terms: is recorded solubility at least 600 µg/mL for Cc1nc(C)n(CC(=O)N2CCN(c3sc(C(F)(F)F)nc3-c3nc4ccc(C5CCOCC5)cc4[nH]3)C[C@H]2C)n1 ?
Reply: Criterion met

Query: In plain terms: is recorded solubility at least 600 µg/mL for Cc1nc(C)n(CC(=O)N2CCN(c3sc(C(F)(F)F)nc3-c3nc4ccccc4[nH]3)C[C@H]2C)n1 ?
Reply: Criterion met

Query: In plain terms: is recorded solubility at least 600 µg/mL for Cc1nn(CC(=O)N2CCN(c3sc(C(F)(F)F)nc3-c3nc4ccccc4[nH]3)C[C@H]2C)cc1CN(C)C ?
Reply: Criterion met

Query: In plain terms: is recorded solubility at least 600 µg/mL for Cc1nc(C)n(CC(=O)N2CCN(c3sc(C(F)(F)F)nc3-c3nc4ccc(N5CCOCC5)cc4[nH]3)C[C@H]2C)n1 ?
Reply: Criterion met

Query: In plain terms: is recorded solubility at least 600 µg/mL for C[C@@H]1CN(c2sc(C(F)(F)F)nc2-c2nc3ccccc3[nH]2)CCN1C(=O)Cn1cnc2cccnc21 ?
Reply: Criterion not met

Query: In plain terms: is recorded solubility at least 600 µg/mL for C[C@@H]1CN(c2sc(C(F)(F)F)nc2-c2nc3cc(OCCO)ccc3[nH]2)CCN1C(=O)Cn1cnc2cccnc21 ?
Reply: Criterion not met

Query: In plain terms: is recorded solubility at least 600 µg/mL for C[C@@H]1CN(c2sc(C(F)(F)F)nc2-c2nc3ccccc3[nH]2)CCN1C(=O)Cn1cccn1 ?
Reply: Criterion met

Query: In plain terms: is recorded solubility at least 600 µg/mL for Cc1nc(C)n(CC(=O)N2CCN(c3sc(C(F)(F)F)nc3-c3nc4ccc(C5CCN(C)CC5)cc4[nH]3)C[C@H]2C)n1 ?
Reply: Criterion met

Query: In plain terms: is recorded solubility at least 600 µg/mL for COc1cc2nc(-c3nc(C(F)(F)F)sc3N3CCN(C(=O)Cn4cnc5cccnc54)[C@H](C)C3)[nH]c2cc1OC ?
Reply: Criterion met

Query: In plain terms: is recorded solubility at least 600 µg/mL for Cc1nc(C)n(CC(=O)N2CCN(c3sc(C(F)(F)F)nc3-c3nc4c(F)cccc4[nH]3)C[C@H]2C)n1 ?
Reply: Criterion met

Where do these numbers come from? They come from ChEMBL document CHEMBL5126609.
